Test system: EKVX
assay-name: NCI tumour cell line growth inhibition, 48 h
The source made the active and inactive calls. Rule as the data show it: active = GI50 up to about 1.1 µM and inactive = higher.
Pick one and only one: 1 (active), 0 (inactive)

{"molecule": "Cc1cccc2c(N)c3cccc(C(=O)NCC[N+](C)(C)Cc4ccc([N+](=O)[O-])s4)c3nc12", "class-name": 0}
{"molecule": "O=C(Cc1ccc(Cl)cc1)Nc1ccc2oc(-c3ccccc3)nc2c1", "class-name": 0}
{"molecule": "Cn1/c(=N\\S(=O)(=O)c2ccccc2)n(S(=O)(=O)c2ccccc2)c2ccccc21", "class-name": 0}
{"molecule": "CCOC(=O)NC(=S)c1ccc(O)c2ccccc12", "class-name": 0}
{"molecule": "Clc1ccccc1/C=C\\C1(c2ccccc2)OCCO1", "class-name": 0}
{"molecule": "C=C1CC=CC(C)(C)C1C/C=C(\\C)C(O)CBr (centres undefined)", "class-name": 0}
{"molecule": "O=c1[nH]nc(Cc2ccccc2)n1-n1cnnc1", "class-name": 0}
{"molecule": "N=C(N)SC1c2ccccc2-c2cc([N+](=O)[O-])ccc21 (centres undefined)", "class-name": 0}
{"molecule": "C[C@H]1CC[C@]2(NC1)O[C@H]1C[C@H]3[C@@H]4CC[C@H]5C[C@@H](O[C@@H]6O[C@H](CO)[C@H](O[C@@H]7O[C@H](CO)[C@@H](O)[C@H](O[C@@H]8OC[C@@H](O)[C@H](O)[C@H]8O)[C@H]7O[C@@H]7O[C@H](CO)[C@@H](O)[C@H](O)[C@H]7O)[C@H](O)[C@H]6O)CC[C@]5(C)[C@H]4CC[C@]3(C)[C@H]1[C@@H]2C", "class-name": 1}
{"molecule": "CCSC12OC3(CCCCCN3C1=O)C1C(=O)N(c3ccccc3)C(=O)C12 (centres undefined)", "class-name": 0}

Task: Query: recorded result category for O=C(CO)CC(=O)C(=O)Nc1nc([N+](=O)[O-])cs1 in this test
Result: 0

Task: Hi team, can someone confirm the assay call for CC[N+]1(C)CCC(O)(/C=C/c2ccc(Cl)cc2)C(C(=O)/C=C/c2ccc(Cl)cc2)C1 (centres undefined) ?
Result: 0

Task: Which outcome was entered for the molecule CC(=O)NC(CCCN(Cc1ccccc1)C(=O)N(CCCl)N=O)C(=O)NCc1ccccc1 (centres undefined) in this test?
Result: 0

Task: Could you check what this test reported for O=S(=O)(c1ccccc1)c1nccs1 ?
Result: 0

Task: Could you check what this test reported for N#C/C(=C\c1ccc(Cl)cc1)c1nc(-c2cc3ccccc3oc2=O)cs1 ?
Result: 0

Task: Would you mind telling me which call this test gave CCN(CC)C(=S)SNCc1ccc(S(N)(=O)=O)cc1 ?
Result: 0

Task: Returns: the outcome recorded for Cn1c(=O)c2c(ncn2CCNC(CO)C(O)c2ccc([N+](=O)[O-])cc2)n(C)c1=O (centres undefined) in this assay.
Result: 0

Task: Short answer needed: outcome of this test for Oc1ccccc1CNCc1nc2ccccc2[nH]1 ?
Result: 0

Task: Record lookup: outcome of this test for CCOC(=O)c1c(N2CCCC2)nsc1Nc1ccc(F)cc1 ?
Result: 0

Task: # lookup: test call for CCOC(=O)N1C/C(=C\c2ccc(N(C)C)cc2)C(=O)/C(=C/c2ccc(N(C)C)cc2)C1
Result: 0

Task: Answer briefly: the call reported for Clc1cc(Cl)cc(C2ON=C(c3ccccc3)N2C23CC4CC(CC(C4)C2)C3)c1 (centres undefined) in this assay.
Result: 0

Task: State the result this test recorded for CC/C(C)=C1\OC(=O)C(C)C(O)C(Cc2cccnc2)NC(=O)C(NC(=O)c2ncccc2O)C(C)OC1=O (centres undefined) .
Result: 0
